The reported measurements were obtained from paper PMC10525135.

# System: A. baumannii BAA-1800
# Type: cell-based, Acinetobacter baumannii
# Condition context: BAA-1800
# Protocol: Minimum inhibitory concentration (n = 3) was performed according to the CLSI protocols with a minor modification, in which Difco Mueller Hinton broth (BD 275730, Franklin Lakes, NJ, USA) was used instead of cation-adjusted Mueller Hinton broth following Wiegand et al.’s standardized protocol for testing AMPs. Bacteria were grown overnight in an opaque colony, and the concentration was determined using McFarland’s technique. […]
No end group written: not given here.
Could you please report measured MIC for the items listed next?
Supply the numeric figure in µg/mL, leaving out any unit text.

So for FLPWISKFLGKIL-NH2 [HRZN-15] , the logged MIC turned out to be 4

So for FLWRISKFLGRKL-NH2 [HRZN-14] , the logged MIC turned out to be 32

So for KLWKLLKKLGRLL-NH2 [HRZN-17] , the logged MIC turned out to be 32

So for FLKKIWKLLGKLL-NH2 [HRZN-16] , the logged MIC turned out to be 16

====

Could you please report measured MIC across the tested strains for the items listed next?
# System: A. baumannii strains AB5075, BAA-1710, -1794, and -1800
# Assay type: cell-based, Acinetobacter baumannii
# Condition context: BAA-1710
No end group written: not given here.
Supply the numeric figure in µg/mL, leaving out any unit text.

So for FLKKIWKLLGKLL-NH2 [HRZN-16] , the logged MIC across the tested strains turned out to be 16

So for FLPWISKFLGKIL-NH2 [HRZN-15] , the logged MIC across the tested strains turned out to be 4

So for KLWKLLKKLGRLL-NH2 [HRZN-17] , the logged MIC across the tested strains turned out to be 32

====

# Tested on: A. baumannii BAA-1794
# Format: cell-based, Acinetobacter baumannii
# Condition context: BAA-1794
No end group written: not given here.
Quantity kind: MIC (µg/mL)
Supply the numeric figure in µg/mL, leaving out any unit text.

The substance FLWRISKFLGRKL-NH2 [HRZN-14] on A. baumannii BAA-1794: MIC was 64

The substance FLKKIWKLLGKLL-NH2 [HRZN-16] on A. baumannii BAA-1794: MIC was 16

The substance KLWKLLKKLGRLL-NH2 [HRZN-17] on A. baumannii BAA-1794: MIC was 32

The substance FLPWISKFLGKIL-NH2 [HRZN-15] on A. baumannii BAA-1794: MIC was 4
